B1: C2CD2L (parent)
chain: LTLKVLRSSSCGDTELLGQATLPV

- Variants of: B1
- ASSAY_INFO: protein stability index of a GFP-peptide fusion (GPS, HEK-293T) (PSI 1-6); higher = more stable;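 note: lentivirally expressed fusions sorted by FACS into six bins by GFP to DsRed ratio, PSI derived from sequencing read proportions per bin multiplied by bin number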
- RUN_CONDITIONS: c terminus: a fixed tail appended
We begin with a simple list: items and their reported protein stability index.

Use these answered entries as a reference point.
{"ENTRY_SEQUENCE": "TTLKVLRSSSCGDTELLGQATLPV [L1T]", "REPORTED_MEASUREMENT": 2.04}
{"ENTRY_SEQUENCE": "LTLKVLRSSSCGDTELLGQQTLPV [A20Q]", "REPORTED_MEASUREMENT": 2.09}
{"ENTRY_SEQUENCE": "LTLCVLRSSSCGDTELLGQATLPV [K4C]", "REPORTED_MEASUREMENT": 2.5}
{"ENTRY_SEQUENCE": "LRLKVLRSSSCGDTELLGQATLPV [T2R]", "REPORTED_MEASUREMENT": 1.64}
{"ENTRY_SEQUENCE": "LTLSVLRSSSCGDTELLGQATLPV [K4S]", "REPORTED_MEASUREMENT": 1.18}
{"ENTRY_SEQUENCE": "LTLKVCRSSSCGDTELLGQATLPV [L6C]", "REPORTED_MEASUREMENT": 1.69}
{"ENTRY_SEQUENCE": "LTLKVLRSSSCGDTELLGQATLPQ [V24Q]", "REPORTED_MEASUREMENT": 1.82}
{"ENTRY_SEQUENCE": "LTLKVLRSSSLGDTELLGQATLPV [C11L]", "REPORTED_MEASUREMENT": 2.78}

Lookup result for LTLKVLRSSSCGDTELLGQATKPV [L22K] ; measured protein stability index: 1.97

Looking up LTLKVLRSSSCGDCELLGQATLPV [T14C] , I found its protein stability index recorded as 1.79

For record LTLKVLRSSSCGDTELLKQATLPV [G18K] the listed protein stability index is 1.71

Item: LTLKVLVSSSCGDTELLGQATLPV [R7V] | protein stability index: 1.85

LTLKVLRSSSCGDTELLGQATPPV [L22P] has a reported protein stability index of 1.87

Memo: ITLKVLRSSSCGDTELLGQATLPV [L1I] , reported protein stability index: 2.76

Entry LTLKVHRSSSCGDTELLGQATLPV [L6H] ; protein stability index = 2.13

Per the records, this variant ( LTLKVVRSSSCGDTELLGQATLPV [L6V] ) has protein stability index equal to 3.39

Short answer for LTLHVLRSSSCGDTELLGQATLPV [K4H] : protein stability index was 1.65

Value of measured protein stability index for the entry LTLKVLRSSSCGDTENLGQATLPV [L16N] : 1.92

protein stability index recorded for this variant, YTLKVLRSSSCGDTELLGQATLPV [L1Y] , is 1.77

protein stability index reading for LTLKVLRSSSCGDTELLGQPTLPV [A20P] : 1.96

Summary for this variant, LTLKVLRSSSVGDTELLGQATLPV [C11V] : protein stability index is 2.53

The recorded protein stability index for entry LTLKVLPSSSCGDTELLGQATLPV [R7P] equals 2.08

# variant LTWKVLRSSSCGDTELLGQATLPV [L3W] ; its protein stability index = 2.45

// sample LTLKVLRSSSCGDTELLGQATHPV [L22H] , its protein stability index was 1.54

The recorded protein stability index for entry LTLKVLRSSSCGDTELLGQADLPV [T21D] equals 1.57

Sure, the documented protein stability index for LTLKVLRSSSCGDGELLGQATLPV [T14G] is 3.33
